Consider the following binders; for each one, report its ヒトPAD4酵素阻害活性 IC50 (BAEE citrullination, colorimetric).
# Test system: ヒトPAD4 (human, UniProt Q9UM07 1-663, limits assumed)
# Sequence (Q9UM07 whole entry): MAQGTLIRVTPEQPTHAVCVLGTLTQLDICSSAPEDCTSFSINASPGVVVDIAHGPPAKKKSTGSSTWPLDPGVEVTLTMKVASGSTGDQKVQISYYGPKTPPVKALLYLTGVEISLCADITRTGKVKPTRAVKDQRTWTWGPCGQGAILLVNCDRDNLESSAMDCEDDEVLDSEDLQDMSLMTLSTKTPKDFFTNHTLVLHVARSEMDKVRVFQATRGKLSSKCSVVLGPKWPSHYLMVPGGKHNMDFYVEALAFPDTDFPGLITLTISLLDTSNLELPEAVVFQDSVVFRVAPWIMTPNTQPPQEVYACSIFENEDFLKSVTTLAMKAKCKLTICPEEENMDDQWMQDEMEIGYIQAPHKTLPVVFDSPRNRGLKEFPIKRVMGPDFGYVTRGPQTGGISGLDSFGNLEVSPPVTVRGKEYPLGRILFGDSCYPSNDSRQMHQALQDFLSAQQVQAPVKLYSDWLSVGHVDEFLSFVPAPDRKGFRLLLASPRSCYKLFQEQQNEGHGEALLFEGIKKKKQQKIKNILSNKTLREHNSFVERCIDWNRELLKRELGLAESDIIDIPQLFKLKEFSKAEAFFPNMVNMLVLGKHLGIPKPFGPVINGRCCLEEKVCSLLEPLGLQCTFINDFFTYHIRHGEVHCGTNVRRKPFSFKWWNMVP
# Protocol details: cell-based or functional assay
Field format: number, assumed nM, no unit text.

stdin: For 抗PAD4抗体2-1-47 (antibody, human IgG1, lambda, V domains shown) VH: EVQLLESGGGLVQPGGSLRLSCAASGFTFSTYAMGWVRQAPGKGLEFVAAIRNDGSWTGYGTPYKTRFTISRDNSKNTLYLQMSSLRAEDTAVYYCAKYTGSSGGSIGAWGQGTLVTVSS VL: SYELTQPPSVSVSPGQTARITCSGGNRNYYYGWYQQKPGQAPVTVIYANDKRPSGIPERFSGSNSGSTTTLTISGVQAEDEADYYCGTATTGKYVFGGGTKLTVLG , what is its reported ヒトPAD4酵素阻害活性 IC50 (BAEE citrullination, colorimetric)?
stdout: 12.2

stdin: Reported ヒトPAD4酵素阻害活性 IC50 (BAEE citrullination, colorimetric), binder 抗PAD4抗体3-2-37 (antibody, human IgG1, lambda, V domains shown) VH: EVQLLESGGGLVQPGGSLRLSCAASGFTFSTYAMGWVRQAPGKGLEFVAAIRNDGSWTGIGYNQKSRFTISRDNSKNTLYLQMSSLRAEDTAVYYCGKYTGSSGGSIGAWGQGTLVTVSS VL: SYELTQPPSVSVSPGQTARITCSGGNRNYYYGWYQQKPGQAPVTVIYANDKRPSGIPERFSGSNSGSTTTLTISGVQAEDEADYYCGTALTGKYVFGGGTKLTVLG : ____
stdout: 15.3

stdin: Look up ヒトPAD4酵素阻害活性 IC50 (BAEE citrullination, colorimetric) for this binder: 抗PAD4抗体Lib2(5R)-2-25 (antibody, V domains shown) VH: EVQLLESGGGLVQPGGSLRLSCAASGFTFSTYAMGWVRQAPGKGLEFVAAIRNDGSWTGYPPPLKGRFTISRDNSKNTLYLQMNSLRAEDTAVYYCAKYTGSSGGSIGAWGQGTLVTVSS VL: SYELTQPPSVSVSPGQTARITCSGGNRNYYYGWYQQKPGQAPVTVIYANDKRPSGIPERFSGSNSGSTTTLTISGVQAEDEADYYCGTAYTGKYVFGGGTKLTVLG
stdout: 8.3
